tested on: SNB-75; test: NCI tumour cell line growth inhibition, 48 h
Active and inactive are the calls of the source. No stated cut-off is given here; in the data, active = GI50 up to about 1.1 µM and inactive = higher.
Outcome codes: T (active), F (inactive)

In [3]: df
Out[3]:
                                    compound  group_label
 0        CN(C)CC1CCCC1=O (stereo not drawn)            F
 1  COc1ccc(C2C3C(=O)C=CC(=O)C3[C@@H]2C)cc1OC (stereo partly drawn)            F
 2  CCOc1cc2c(cc1O)CC[C@@H]1[C@@H]2CC[C@]2(C)C(N)CC[C@@H]12 (stereo partly drawn)            F
 3  CCC1=C(C(C)=O)[C@@H]2CCCCC(C(=O)OC)[C@@H]2C1=O (stereo partly drawn)            F
 4  COC(=O)/C=C(\C)CC/C=C(\C)CCC1OC1(C)C (stereo not drawn)            F
 5       Nc1c([N+](=O)[O-])cc2c3c(cccc13)CC2            F
 6         C/C(=N\O)c1ccc2cc(Br)c3ccccc3c2c1            F
 7  CC(C)(C)OC(=O)NC(Cc1ccc(OCc2ccccc2)cc1)C(=O)NC(COCc1ccccc1)C(=O)Oc1c(Cl)c(Cl)c(Cl)c(Cl)c1Cl (stereo not drawn)            F
 8  COc1ccc2c(c1)CCCN1Cc3ccccc3CC21 (stereo not drawn)            F
 9  Cc1ccc(NC(=O)/C(=N\NC(N)=O)c2c(O)c3ccccc3[nH]c2=O)cc1            F
10  N#Cc1nc(C2CCC(=O)O2)oc1N (stereo not drawn)            F
11    NC(Cc1ccnnc1)C(=O)O (stereo not drawn)            F
12  Clc1ccc2c(c1)CC1C[N+]3=C(CCCC3)C1=C2 (stereo not drawn)            F
13  Cc1ccc(S(=O)(=O)N/N=C2\C=C[C@]3(CC2)C(=O)N(C)c2ccccc23)cc1            F
14  C=C1COC(/C=C(\C)CC/C=C(\C)CCl)C1 (stereo not drawn)            F
15  O=C1NC2OCC(O)C(O1)C2O (stereo not drawn)            F
16  C[C@@H](C[C@H]1OC(C)(C)O[C@@H]1C(C)(C)O)[C@H]1CC=C2[C@]3(C)[C@H](O)C[C@H]4C(C)(C)[C@H](O)CC[C@]4(C)[C@H]3CC[C@]21C            F
17   O=C(NC1=C(Cl)C(=O)c2ccccc2C1=O)c1ccccc1            F
18                                 O=CNCNCCO            F
19            O=c1ccn(CC2(CO)CCC2)c(=O)[nH]1            F
20          O=C(CCc1ccccc1)On1nnc2ccccc2c1=O            F
21  CCCc1cc(=O)oc2c3c(c4c(c12)OC(C)(C)CC4)O[C@@H](C)[C@H](C)[C@H]3O            F
22  COC(=O)c1ccccc1/C=C1\Cc2ccc3c(c2C1=O)CCCC3            F
23  O=C1C(Cl)=C(N2CCSCC2)C(=O)c2c(O)ccc(O)c21            T
24  COC(=O)c1ccc(NC(=O)c2cc(OC)c(OC)c(OC)c2)cc1            F
25  COc1ccc(/C=N/NC(=O)CSc2nc(-c3ccccc3)c(-c3ccccc3)[nH]2)cc1OC            F
26             CCOC(=O)N/N=C(/N)c1cccc(Br)c1            F
27  S=P1(N2CCCCC2)Oc2ccc3ccccc3c2-c2c(ccc3ccccc23)O1            F
